half-life overview
assay: Metabolic stability in mouse liver microsomes assessed as half life measured upto 120 mins; type: ADME, Microsome
READOUT_KIND: half-life (min)

STRUCTURE	MEASUREMENT
Cc1nnn(C)c1-c1cc(F)c2c3ncc(C(C)(C)O)cc3n([C@H](c3ccccc3)C3CCOCC3)c2c1	26
[2H]C([2H])([2H])c1nnn(C)c1-c1cc2c(cc1F)c1ncc(C(C)(C)O)cc1n2[C@H](c1ncccc1F)C1CCOCC1	32
Cc1nnn(C)c1-c1cc2c(cc1F)c1ncc(C(C)(C)O)cc1n2[C@H](c1ccccc1)C1CCOCC1	21
Cc1nnn(C)c1-c1ccc2c3ncc(C(C)(C)O)cc3n([C@H](c3ccccc3)C3CCOCC3)c2c1	11
